This listing pairs compounds with measured Her2 level.
# measured_target: Receptor tyrosine-protein kinase erbB-2 (Homo sapiens) (UniProt P04626)
# Sequence (P04626 whole entry, looked up): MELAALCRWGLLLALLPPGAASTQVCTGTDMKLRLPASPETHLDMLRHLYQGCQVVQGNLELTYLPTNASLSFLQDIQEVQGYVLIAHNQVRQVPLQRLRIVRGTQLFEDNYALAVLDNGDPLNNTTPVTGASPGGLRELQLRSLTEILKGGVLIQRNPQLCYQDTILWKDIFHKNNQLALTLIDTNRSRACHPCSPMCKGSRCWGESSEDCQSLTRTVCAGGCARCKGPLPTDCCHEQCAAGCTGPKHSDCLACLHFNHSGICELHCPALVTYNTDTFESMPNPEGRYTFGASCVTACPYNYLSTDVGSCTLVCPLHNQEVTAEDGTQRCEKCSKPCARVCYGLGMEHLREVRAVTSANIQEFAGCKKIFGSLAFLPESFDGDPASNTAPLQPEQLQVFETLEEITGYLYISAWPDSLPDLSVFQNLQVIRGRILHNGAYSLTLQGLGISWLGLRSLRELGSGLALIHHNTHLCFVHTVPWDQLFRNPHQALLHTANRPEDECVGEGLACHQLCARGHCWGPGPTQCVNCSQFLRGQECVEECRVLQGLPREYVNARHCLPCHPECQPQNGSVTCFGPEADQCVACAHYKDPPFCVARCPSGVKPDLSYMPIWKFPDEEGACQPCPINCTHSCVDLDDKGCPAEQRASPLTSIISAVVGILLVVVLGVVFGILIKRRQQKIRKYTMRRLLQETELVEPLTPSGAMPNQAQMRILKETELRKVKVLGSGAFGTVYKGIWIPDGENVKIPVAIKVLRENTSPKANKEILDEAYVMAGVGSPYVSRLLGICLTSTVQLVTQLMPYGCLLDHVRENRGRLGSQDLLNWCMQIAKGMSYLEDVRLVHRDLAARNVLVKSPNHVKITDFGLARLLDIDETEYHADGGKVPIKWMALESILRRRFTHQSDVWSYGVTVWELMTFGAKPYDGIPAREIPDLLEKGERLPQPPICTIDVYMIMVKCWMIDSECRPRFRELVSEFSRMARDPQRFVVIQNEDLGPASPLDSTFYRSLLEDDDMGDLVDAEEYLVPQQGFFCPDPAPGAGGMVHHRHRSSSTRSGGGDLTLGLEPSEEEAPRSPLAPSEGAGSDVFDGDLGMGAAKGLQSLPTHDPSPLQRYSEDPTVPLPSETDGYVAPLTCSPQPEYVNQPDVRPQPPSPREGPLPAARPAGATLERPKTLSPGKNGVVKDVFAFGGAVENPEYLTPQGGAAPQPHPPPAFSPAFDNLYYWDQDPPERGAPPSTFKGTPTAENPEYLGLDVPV
# measurement_description: Her2 expression decrease, cell viability multiplex – SKBR3 breast tumor cells, AlphaScreen, ATP viability, primary screen (AID 461);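 further: lower value means less Her2 protein in the cells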
# conditions: 18-24 h, at 10 µM, active compounds read low
Number in %, nothing else.

## Input What value of Her2 level has been recorded for this entry: COC(=O)CN1C(=O)C(O)(CC(=O)c2ccc(Cl)cc2)c2ccccc21 (configuration not stated)
## Output 88.5

## Input What value of Her2 level has been recorded for this entry: COc1ccc(C(C)N2CC34C=CC(O3)C(C(=O)OCC(C)C)C4C2=O)cc1 (configuration not stated)
## Output 89.5

## Input What value of Her2 level has been recorded for this entry: `Cc1occc1C(=O)N1CCN(Cc2ccccc2)CC1`
## Output 89

## Input What value of Her2 level has been recorded for this entry: `Cn1c(=O)c2c(nc(SCCCC#N)n2Cc2c(F)cccc2Cl)n(C)c1=O`
## Output 108

## Input What value of Her2 level has been recorded for this entry: `CCCCc1cc(=O)oc2cc(OCC(=O)N(CC)CC)c(Cl)cc12`
## Output 112

## Input What value of Her2 level has been recorded for this entry: `CSc1cccc(NS(=O)(=O)c2ccccc2)c1`
## Output 88

## Input What value of Her2 level has been recorded for this entry: `CCCn1c(OC)nc2c1c(=O)n(C)c(=O)n2C`
## Output 88.5

## Input What value of Her2 level has been recorded for this entry: COc1cccc(NC(=O)C2CCCN(S(=O)(=O)c3cccc4cccnc34)C2)c1 (configuration not stated)
## Output 102

## Input What value of Her2 level has been recorded for this entry: `CC1CCN(C(=O)Cn2cc3c(n2)CCCC3)CC1`
## Output 116

## Input What value of Her2 level has been recorded for this entry: `CNC(=O)c1ccsc1NC(=O)c1ccccc1`
## Output 74

## Input What value of Her2 level has been recorded for this entry: `COc1ccc(-c2[nH]c(-c3cccc(OC)c3)nc2SCC(=O)NCc2ccco2)cc1`
## Output 85.5

## Input What value of Her2 level has been recorded for this entry: `C=CCc1ccccc1OCCCCN1CCCC1`
## Output 101

## Input What value of Her2 level has been recorded for this entry: `O=c1oc2c3c4c(cc2cc1-c1nc2ccccc2[nH]1)CCCN4CCC3`
## Output 65.5

## Input What value of Her2 level has been recorded for this entry: `O=C(Cn1ncc2c1-c1ccccc1OC2)N1CCc2ccccc21`
## Output 100

## Input What value of Her2 level has been recorded for this entry: `COc1c(C(=O)Nc2c(C)n(C)n(-c3ccccc3)c2=O)ccc2ccccc12`
## Output 104

## Input What value of Her2 level has been recorded for this entry: COc1ccc(S(=O)(=O)NCC(c2cccnc2)N2CCN(C)CC2)cc1C (configuration not stated)
## Output 98.5

## Input What value of Her2 level has been recorded for this entry: COc1ccc(NC(=O)C2CCCN2S(=O)(=O)c2cccc3cccnc23)c(OC)c1 (configuration not stated)
## Output 106

## Input What value of Her2 level has been recorded for this entry: CCCCCOc1ccc(C2NC(=O)NC2=O)cc1 (configuration not stated)
## Output 109

---

# measurement_description: growth suppression of yeast trafficking mutant, preliminary HTS, modulators of trafficking downstream of Golgi apparatus project, 1536-format plate, OD 615 nm (AID 637)
# conditions: yeast transport mutant growth, absorbance 615 nm, 18 h; active compounds read high
This listing pairs compounds with measured inhibition.
Number in %, nothing else.

{"compound": "O=C(CCCn1c(=O)[nH]c2ccsc2c1=O)N1CCN(c2ccccn2)CC1", "quantitative_result": -0.18}

## Input What value of inhibition has been recorded for this entry: COc1cccc(C2CC(=O)Nc3c2c(=O)n(C)c(=O)n3C)c1OC (configuration not stated)
## Output -4.75

## Input What value of inhibition has been recorded for this entry: CC1CCCCN1CCNC(=O)C1CCN(S(=O)(=O)c2cccc3cccnc23)CC1 (configuration not stated)
## Output -2.46

## Input What value of inhibition has been recorded for this entry: CC1Cn2c(nnc2-c2ccc(F)cc2)S1 (configuration not stated)
## Output -4

## Input What value of inhibition has been recorded for this entry: `Brc1ccccc1-c1nc(-c2ccccc2)no1`
## Output -8

## Input What value of inhibition has been recorded for this entry: `COc1ccccc1NC(=O)N(Cc1ccccc1)c1ccccn1`
## Output -4.92

## Input What value of inhibition has been recorded for this entry: `O=C(O)c1ccc(-c2ccc(O)c(F)c2)cc1`
## Output 1.5

## Input What value of inhibition has been recorded for this entry: `CCCCN(C)Cc1c(O)ccc2c(-c3ccccc3)cc(=O)oc12`
## Output 2.95

## Input What value of inhibition has been recorded for this entry: `O=C(C1CCN(c2nnc(-n3cccc3)s2)CC1)N1CCc2ccccc2C1`
## Output -6

## Input What value of inhibition has been recorded for this entry: `c1ccc(-c2nnc(SCc3nc4ccccc4[nH]3)o2)cc1`
## Output 0.91

## Input What value of inhibition has been recorded for this entry: CNC(=O)C1C2C=CC3(O2)C1C(=O)N(C1CC1)C3C(=O)NCc1ccc(OC)cc1 (configuration not stated)
## Output -0.16

## Input What value of inhibition has been recorded for this entry: COc1ccccc1NC(=O)C1(C)Cc2ccccc2C(=O)O1 (configuration not stated)
## Output 0.67
